Entries and their herbicidal effect rating, CYPIR
System: Cyperus iria
Test: Preemergence weed control under flooded paddy conditions, CYPIR (Rice Flatsedge); note: meaning of each grade not given here
Assay type: in vivo
Details: Rate 0.0320 kg/ha; preemergence weeds, flooded paddy; rated three to four weeks after treatment
Please give only the number in your answer, with no unit.

Ask: I am curious: what herbicidal effect rating, CYPIR value has been reported for COC(=O)c1nsc2ccc(-n3c(=O)cc(C(F)(F)F)n(C)c3=O)cc12 [Example 318] ?
Result: 0.0

====

Tested on: Echinochloa oryzoides (Ard.) Fritsch.
Test: Preemergence weed control under flooded paddy conditions, ECHORC (Watergrass (Calif.)); for herbicidal effect rating, ECHORC: meaning of each grade not given here
Type: in vivo
Conditions: 0.0625 kg/ha; preemergence weeds, flooded paddy; rated three to four weeks after treatment
Measurement type: herbicidal effect rating, ECHORC
Please give only the number in your answer, with no unit.

Ask: Under Echinochloa oryzoides (Ard.) Fritsch.: herbicidal effect rating, ECHORC value of Cn1c(C(F)(F)F)cc(=O)n(-c2ccc3snc(N4CCOCC4)c3c2)c1=O ?
Result: 0.0

====

Entries and their ECHORC herbicidal effect rating
System: Echinochloa oryzoides (Ard.) Fritsch.
Assay: Preemergence weed control under flooded paddy conditions, ECHORC (Watergrass (Calif.))
Assay type: in vivo
Details: Rate 0.0313 kg/ha; preemergence, flooded paddy; rated three to four weeks after treatment
Please give only the number in your answer, with no unit.

Molecule | ECHORC herbicidal effect rating
C=CCOc1nc(C(F)(F)F)cc(=O)n1-c1ccc2snc(-c3cc(C)ccc3OC)c2c1 [Example 245] | 0.0
C#CCn1c(C(F)(F)F)cc(=O)n(-c2ccc3snc(C)c3c2)c1=O [Example 217] | 0.0
CC(OCc1nsc2ccc(-n3c(=O)cc(C(F)(F)F)n(C)c3=O)cc12)C(F)(F)F (centres unmarked) [Example 208] | 0.0
Cc1nsc2ccc(-n3c(=O)cc(C(F)(F)F)n(Cc4ccccc4)c3=O)cc12 [Example 218] | 0.0

Ask: I am curious: what ECHORC herbicidal effect rating value has been reported for Cn1c(C(F)(F)F)cc(=O)n(-c2ccc3snc(COC4C=CCCC4)c3c2)c1=O (centres unmarked) [Example 209] ?
Result: 1.0

====

System: Cyperus serotinus, Rottb.
Experiment: Preemergence weed control under flooded paddy conditions, CYPSE (Flatsedge)
Type: in vivo
Settings: Rate 0.0620 kg/ha, preemergence, rated three to four weeks after treatment
Measurement type: CYPSE herbicidal effect rating
Please give only the number in your answer, with no unit.

Molecule | CYPSE herbicidal effect rating
COC(=O)C(C)Oc1c(-c2nsc3ccc(-n4c(=O)cc(C(F)(F)F)n(C)c4=O)cc23)ccc(C)c1C (stereo not shown) | 9.0
Cc1ccc(OCC(=O)OC(C)(C)C)c(-c2noc3ccc(-n4c(=O)cc(C(F)(F)F)n(C)c4=O)c(Cl)c23)c1 | 0.0

Ask: I am curious: what CYPSE herbicidal effect rating value has been reported for Cn1c(C(F)(F)F)cc(=O)n(-c2ccc3snc(-c4ccc(OCC(=O)O)cc4)c3c2)c1=O ?
Result: 9.0

Ask: I am curious: what CYPSE herbicidal effect rating value has been reported for Cn1c(C(F)(F)F)cc(=O)n(-c2ccc3snc(C=C(F)Br)c3c2)c1=O ?
Result: 0.0

Ask: I am curious: what CYPSE herbicidal effect rating value has been reported for COC(=O)/C=C/c1nsc2ccc(-n3c(=O)cc(C(F)(F)F)n(C)c3=O)cc12 ?
Result: 0.0

Ask: I am curious: what CYPSE herbicidal effect rating value has been reported for COC(=O)COc1ccc(-c2nsc3ccc(-n4c(=O)cc(C(F)(F)F)n(C)c4=O)cc23)cc1 ?
Result: 0.0

Ask: I am curious: what CYPSE herbicidal effect rating value has been reported for COC(=O)COc1c(-c2nsc3ccc(-n4c(=O)cc(C(F)(F)F)n(C)c4=O)cc23)ccc(C)c1C ?
Result: 2.0

====

Tested on: Sagittaria pygmaea, L.
Test: Preemergence weed control under flooded paddy conditions, SAGPY (Arrowhead (Pygmaea)); note: meaning of each grade not given here
Format: in vivo
Conditions: Rate 0.0320 kg/ha; preemergence, flooded paddy; rated 3-4 weeks after treatment
Entries and their herbicidal effect rating, SAGPY
Please give only the number in your answer, with no unit.

Answered cases to consult:
Compound | herbicidal effect rating, SAGPY
C#CC(C)OC(=O)C(C)(C)Oc1ccc(C)cc1-c1nsc2ccc(-n3c(=O)cc(C(F)(F)F)n(C)c3=O)cc12 (stereo not drawn) | 0.0
CCS(=O)(=O)NC(=O)COc1ccc(C)cc1-c1nsc2ccc(-n3c(=O)cc(C(F)(F)F)n(C)c3=O)cc12 | 0.0

Ask: I am curious: what herbicidal effect rating, SAGPY value has been reported for CCOC(=O)C1CCC(OC(=O)COc2ccc(C)cc2-c2nsc3ccc(-n4c(=O)cc(C(F)(F)F)n(C)c4=O)cc23)CC1 (single isomer, unassigned; isomer a) ?
Result: 0.0

====

Tested on: Echinochloa oryzoides (Ard.) Fritsch.
Assay: Preemergence weed control under flooded paddy conditions, ECHORC (Watergrass (Calif.)); for herbicidal effect rating, ECHORC: meaning of each grade not given here
Assay type: in vivo
Settings: 0.0625 kg/ha; preemergence, flooded paddy; rated three to four weeks after treatment
Entries and their herbicidal effect rating, ECHORC

Compound | Target or test system | herbicidal effect rating, ECHORC
COc1ccc(C)cc1-c1nsc2ccc(-n3c(=O)cc(C(F)(F)F)n(C)c3=O)cc12 | Echinochloa oryzoides (Ard.) Fritsch. | 9.0
COc1ccccc1Oc1noc2ccc(-n3c(=O)cc(C(F)(F)F)n(C)c3=O)cc12 | Echinochloa oryzoides (Ard.) Fritsch. | 0.0
COC(=O)COc1noc2ccc(-n3c(=O)cc(C(F)(F)F)n(C)c3=O)cc12 | Echinochloa oryzoides (Ard.) Fritsch. | 9.0
COC(=O)COc1ccc(C)cc1-c1nsc2ccc(-n3c(=O)cc(C)n(C)c3=O)cc12 | Echinochloa oryzoides (Ard.) Fritsch. | 0.0
Cc1ccc(OC(C)C(=O)[O-])c(-c2nsc3ccc(-n4c(=O)cc(C(F)(F)F)n(C)c4=O)cc23)c1.[Na+] (racemic) | Echinochloa oryzoides (Ard.) Fritsch. | 9.0

Ask: I am curious: what herbicidal effect rating, ECHORC value has been reported for CCN(CC)C(=O)COc1ccc(C)cc1-c1nsc2ccc(-n3c(=O)cc(C(F)(F)F)n(C)c3=O)cc12 ?
Result: 4.0

Ask: I am curious: what herbicidal effect rating, ECHORC value has been reported for COC(=O)C(C)Oc1c(C)cc(C)cc1-c1nsc2ccc(-n3c(=O)cc(C(F)(F)F)n(C)c3=O)cc12 (stereo not shown) ?
Result: 7.0

Ask: I am curious: what herbicidal effect rating, ECHORC value has been reported for Cc1noc2cc(F)c(-n3c(=O)cc(C(F)(F)F)n(C)c3=O)cc12 ?
Result: 7.0

Ask: I am curious: what herbicidal effect rating, ECHORC value has been reported for Cc1nsc2ccc(-n3c(=O)cc(C(F)(F)F)n(C)c3=O)cc12 ?
Result: 6.0

Ask: I am curious: what herbicidal effect rating, ECHORC value has been reported for COC(=O)C(C)Oc1ccccc1Oc1noc2ccc(-n3c(=O)cc(C(F)(F)F)n(C)c3=O)cc12 (stereo not shown) ?
Result: 1.5

====

System: Oryza sativa, (L.) Tebonnet
Assay: Rice tolerance to post-transplant applications under flooded paddy conditions (Example 187), ORYSAT (Rice, Tebonnet)
Settings: 0.2500 kg/ha, rated three to four weeks after treatment
Measurement type: ORYSAT herbicidal rating (rice tolerance)
Please give only the number in your answer, with no unit.

Chemical string | Numeric readout
Cc1ccc(OC(C)(C)C(=O)O)c(-c2nsc3ccc(-n4c(=O)cc(C(F)(F)F)n(C)c4=O)cc23)c1 | 6.0
Cn1c(C(F)(F)F)cc(=O)n(-c2ccc3snc(C(C)(C)C(=O)OCc4ccco4)c3c2)c1=O | 7.0
Cn1c(C(F)(F)F)cc(=O)n(-c2ccc3snc(C(C)(C)C(=O)O)c3c2)c1=O | 9.0
CC(C)OC(=O)C(C)(C)c1nsc2ccc(-n3c(=O)cc(C(F)(F)F)n(C)c3=O)cc12 | 6.0
Cn1c(C(F)(F)F)cc(=O)n(-c2ccc3snc(C(=O)NS(=O)(=O)Cc4ccc(Cl)cc4)c3c2)c1=O | 5.0
COCOCc1nsc2ccc(-n3c(=O)cc(C(F)(F)F)n(C)c3=O)cc12 | 9.0

Ask: I am curious: what ORYSAT herbicidal rating (rice tolerance) value has been reported for Cn1c(C(F)(F)F)cc(=O)n(-c2cc3c(C(=O)NS(=O)(=O)Cc4ccccc4)nsc3cc2F)c1=O ?
Result: 7.0

====

System: Oryza sativa, (L.) Tebonnet
Assay: Rice tolerance to post-transplant applications under flooded paddy conditions (Example 187), ORYSAT (Rice, Tebonnet)
Settings: 0.2500 kg/ha, herbicidal effect rating 0-9, three to four weeks after treatment
Entries and their ORYSAT
Please give only the number in your answer, with no unit.

Molecule | Numeric readout
CCOCOCc1nsc2ccc(-n3c(=O)cc(C(F)(F)F)n(C)c3=O)cc12 | 9.0
Cn1c(C(F)(F)F)cc(=O)n(-c2ccc3snc(/C=N/Nc4ccccc4)c3c2)c1=O | 3.0
CCC(C#N)c1nsc2ccc(-n3c(=O)cc(C(F)(F)F)n(C)c3=O)cc12 (centres unmarked) | 8.5
Cn1c(C(F)(F)F)cc(=O)n(-c2ccc3snc(C(=O)Nc4nc(C(F)(F)F)c(Cl)s4)c3c2)c1=O | 0.0
COc1ccc(I)cc1-c1nsc2ccc(-n3c(=O)cc(C(F)(F)F)n(C)c3=O)cc12 | 4.0

Ask: I am curious: what ORYSAT value has been reported for CC(Cl)c1nsc2ccc(-n3c(=O)cc(C(F)(F)F)n(C)c3=O)cc12 (centres unmarked) ?
Result: 9.0

Ask: I am curious: what ORYSAT value has been reported for Cc1ccc(OCC(=O)NS(C)(=O)=O)c(-c2noc3cc(F)c(-n4c(=O)cc(C(F)(F)F)n(C)c4=O)cc23)c1 ?
Result: 6.0

Ask: I am curious: what ORYSAT value has been reported for Cn1c(C(F)(F)F)cc(=O)n(-c2ccc3snc(C(=O)C(C)(C)C)c3c2)c1=O ?
Result: 7.5
